Entry source: ChEMBL document CHEMBL1806397

method: Ratio of drug level in brain to plasma in Sprague-Dawley rat at 10 mg/kg, po after 1 hr
Assay type: ADME, organism-based
Set-up: dose 10 mg/kg, route oral
conditions.used: read-out: BPR

mol	Kp at 1 h
Cc1cc(-c2cccc(Cl)c2)ncc1[C@H]1CCCN1C(=O)c1nccs1	0.8

----------
method: Drug level in Sprague-Dawley rat brain at 10 mg/kg, po after 1 hr
Assay type: ADME, organism-based
Set-up: dose 10 mg/kg, route oral
conditions.used: read-out: Drug uptake

mol	concentration at 1 h / nM
Cc1cc(-c2cccc(Cl)c2)ncc1[C@H]1CCCN1C(=O)c1nccs1	133
